Some variants, each annotated with its measured protein stability index.
B1: RTN2 (parent)
chain: SERPLEDLRLRLDHLGWVARGTGS

Variants of: B1
test-name: protein stability index of a GFP-peptide fusion (GPS, HEK-293T) (PSI 1-6); higher = more stable;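 further: lentivirally expressed fusions sorted by FACS into six bins by GFP to DsRed ratio, PSI derived from sequencing read proportions per bin multiplied by bin number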
experimental-conditions: c terminus: a fixed tail appended
Please reply with the value in numeric form only.

>>> print(df.to_string())
           sequence_content        measured_property  test_result
0  SERPLEDLRLRLDHLEWVARGTGS  protein stability index         3.03
1  SERPLEDLFLRLDHLGWVARGTGS  protein stability index         1.63
2  SERPLEDLRTRLDHLGWVARGTGS  protein stability index         1.93

INPUT: # get_value(readout='protein stability index', item= `SERPLEDLRLRLDHLGEVARGTGS` )
OUTPUT: 4.11

INPUT: Fill blank: measured protein stability index of the variant `SERPLEMLRLRLDHLGWVARGTGS` is ____.
OUTPUT: 1.02

INPUT: Please give the measured protein stability index for this variant: `SERPLEDLRLRLGHLGWVARGTGS`
OUTPUT: 2.87

INPUT: Find the recorded protein stability index belonging to `SERPLEDLRLRLDHLGWKARGTGS` and report it.
OUTPUT: 3.79

INPUT: Which protein stability index value is on record for `SERPLEDLRLRLDHLGMVARGTGS` ?
OUTPUT: 3.49

Values were extracted from the supplement of paper PMC10567573.
